Listing of entries alongside the reported pest or weed control at 625 ppm.
system: Piricularia oryzae; experiment: whole plant or invertebrate; assay type: in vivo; details: Pyricularia oryzae, read-out: % Control RB
Give the quantity in %, number only.

> print(dat)
                                   molecule  recordedresult
1     CCCN(CCOc1c(C)cc(C)cc1C)C(=O)c1cnccn1              29
2  CCCN(C(=O)c1cccnc1)C(C)COc1c(Cl)cc(Cl)cc1Cl (centres unmarked)               0
3  CCOCCN(CCOc1c(Cl)cc(Cl)cc1Cl)C(=O)c1cccnc1               0
4  CCCN(CCOc1c(Cl)cc(Cl)cc1Cl)C(=O)c1cncn1C               0

Would you kindly share the measured pest or weed control at 625 ppm for "CCOCCN(CCOc1c(Cl)cc(Cl)cc1Cl)C(=O)c1cnccn1" ?
38

And then "CCCN(CCOc1c(Cl)cc(Cl)cc1Cl)C(=O)c1ccccn1" , what is it?
10

====

system: Piricularia oryzae; assay: whole plant or invertebrate; format: in vivo; settings: Pyricularia oryzae, read-out: % Control RB
measurementLabel: pest or weed control at 625 ppm (%)
The response must be a number in % with no trailing unit.

> print(dat)
                                   compound                 measurementlabel  unitabbrev  recordedresult
1  CCCN(CC(C)Cc1ccc(C(C)(C)C)cc1)C(=O)c1cnccn1 (centres unmarked)  pest or weed control at 625 ppm           %               0
2  O=C(c1cnccn1)N(CCO)CCOc1c(Cl)cc(Cl)cc1Cl  pest or weed control at 625 ppm           %               0
3  CCCN(CCOc1c(Cl)cc(Cl)cc1Cl)C(=O)c1cncnc1  pest or weed control at 625 ppm           %              38
4  CCCN(CCOc1c(Cl)cc(Cl)cc1Cl)C(=S)c1cccnc1  pest or weed control at 625 ppm           %             100
5   CCN(CCOc1c(Cl)cc(Cl)cc1Cl)C(=O)c1cccnc1  pest or weed control at 625 ppm           %              96

Request body: readout pest or weed control at 625 ppm, system Piricularia oryzae, query "CCCN(CCCc1ccc(Cl)cc1Cl)C(=O)c1cnccn1" . Return the value.
21

# repeat for "C=CCN(CCOc1c(Cl)cc(Cl)cc1Cl)C(=O)c1cccnc1"
0

What about this compound? "CCCN(CCOc1ccc(Cl)cc1Cl)C(=O)c1cccnc1"
0

Then what about the compound "CCCN(CCOc1c(Cl)cc(Cl)cc1Cl)C(=O)c1ccncc1" ?
0

Entry "CCCN(CCCc1c(Cl)cccc1Cl)C(=O)c1cnccn1" please
0

====

Consider the following compounds and their measured pest or weed control at 625 ppm readings.
tested on: Piricularia oryzae; assay: whole plant or invertebrate; format: in vivo; conditions: Pyricularia oryzae, read-out: % Control RB
// return numeric value only (unit: %, not printed)

> print(dat)
                                   compound  recordedresult
1     CCCN(CCOc1c(C)cc(C)cc1C)C(=O)c1cncnc1              36
2      CCCN(CCOc1ccc(Cl)cc1Cl)C(=O)c1cnccn1               0
3        CCCN(Cc1c(Cl)cccc1Cl)C(=O)c1cnccn1               0
4  CCCN(C(=O)c1cnccn1)C(C)COc1c(Cl)cc(Cl)cc1Cl (stereo not shown)               0
5      CCCN(CCCc1ccc(Cl)cc1Cl)C(=O)c1cccnc1              71

Need pest or weed control at 625 ppm of "CCCN(CCCc1c(Cl)cccc1Cl)C(=O)c1cccnc1" , thanks.
0

====

test system: Piricularia oryzae; assay: whole plant or invertebrate; format: in vivo; details: Pyricularia oryzae, read-out: % Control RB
Label key: Criterion met means pest or weed control at 625 ppm under 60%; Criterion not met means pest or weed control at 625 ppm of 60% or more.

Please review the following examples before continuing.
> print(dat)
                                   molecule         classlabel
1  O=C(c1cccnc1)N(CCO)CCOc1c(Cl)cc(Cl)cc1Cl      Criterion met
2  CCCN(CCCOc1c(Cl)cc(Cl)cc1Cl)C(=O)c1cccnc1  Criterion not met
3  CCCN(CCOc1c(Cl)cc(Cl)cc1Cl)C(=O)c1cnccn1  Criterion not met
4  CCCN(CCOc1c(Cl)cc(Cl)cc1Cl)C(=O)c1cccnc1  Criterion not met
5   CCN(CCOc1c(Cl)cc(Cl)cc1Cl)C(=O)c1cnccn1      Criterion met
6     CCCN(CCOc1c(C)cc(C)cc1C)C(=O)c1cccnc1  Criterion not met

Then there is this molecule:
Just wondering, is pest or weed control at 625 ppm of CCCN(CC(C)Cc1ccc(C(C)(C)C)cc1)C(=O)c1cccnc1 (stereo not shown) below 60%?
Criterion met
